Task for the reader: assign each of the following molecules its reported pKd.
- assay.overview: Binding affinity against bacterial 16S rRNA using mass spectrometry based assay
- Design: species or system Escherichia coli
One number for each entry, as −log10 of the molar value.

Some molecules with recorded pKd:
molecule: CN(CCCCN(C)CC(O)CO[C@H]1O[C@H](CO)[C@@H](O)[C@H](O)[C@H]1N)CC(O)CO[C@@H]1O[C@H](CO)[C@@H](O)[C@H](O)[C@H]1N (some centres undefined)
pKd: 4.35

molecule: CN(CCCCN(C)CC(O)CO[C@@H]1[C@@H](O)[C@H](N)C[C@H](N)[C@H]1O)CC(O)CO[C@H]1O[C@H](CN)[C@@H](O)[C@H](O)[C@H]1N (some centres undefined)
pKd: 4.60

molecule: NC[C@H]1O[C@H](OCC(O)CN2CCN(CC(O)CO[C@H]3O[C@H](CN)[C@@H](O)[C@H](O)[C@H]3N)CC2)[C@H](N)[C@@H](O)[C@@H]1O (some centres undefined)
pKd: 4.49

// pKd lookup, key: CN(CCCCCCN(C)CC(O)CO[C@H]1O[C@H](CO)[C@@H](O)[C@H](O)[C@H]1N)CC(O)CO[C@@H]1O[C@H](CO)[C@@H](O)[C@H](O)[C@H]1N (some centres undefined)
4.28
